We begin with a simple list: items and their reported relative viability.
# System: LCLC-103H
# method_summary: relative viability (nuclei count vs DMSO), 5 days (fraction); higher = more cells survive
# condition_summary: first compound 1 µM
assay_metric: relative viability

molecule: CCN(CC)CCCCNc1ncc2cc(-c3cc(OC)cc(OC)c3)c(NC(=O)NC(C)(C)C)nc2n1 + Nc1nc2[nH]cc(CCc3ccc(C(=O)N[C@@H](CCC(=O)O)C(=O)O)cc3)c2c(=O)[nH]1 [Pemetrexed] (partner 0.2 µM)
target_or_system: LCLC-103H
number: 0.533
//
molecule: O=c1cc(N2CCOCC2)oc2c(-c3cccc4c3sc3ccccc34)cccc12 + CC(C)C[C@H](NC(=O)[C@H](Cc1ccccc1)NC(=O)c1cnccn1)B(O)O [Bortezomib] (partner 0.002 µM)
target_or_system: LCLC-103H
number: 0.877
//
molecule: O=c1cc(N2CCOCC2)oc2c(-c3cccc4c3sc3ccccc34)cccc12 + CS(=O)(=O)N1CCN(Cc2cc3nc(-c4cccc5[nH]ncc45)nc(N4CCOCC4)c3s2)CC1 [Pictilisib] (partner 1 µM)
target_or_system: LCLC-103H
number: 0.577
//
molecule: CCN(CC)CCCCNc1ncc2cc(-c3cc(OC)cc(OC)c3)c(NC(=O)NC(C)(C)C)nc2n1 + C[C@]1(O)C[C@@H](c2nc(-c3ccc4ccc(-c5ccccc5)nc4c3)c3c(N)nccn32)C1 [Linsitinib] (partner 1 µM)
target_or_system: LCLC-103H
number: 1.15

* * *

# Test system: NCI-H441
# method_summary: relative viability (nuclei count vs DMSO), 5 days (fraction); higher = more cells survive
# condition_summary: first compound 0.253 µM
The class of a record is decided solely by its measured relative viability; consult lo = under 0.5, med = from 0.5 up to 0.9, hi = 0.9 and over

compound: COc1nc(C)cnc1NS(=O)(=O)c1cccnc1-c1ccc(-c2nnco2)cc1 [Zibotentan] + CS(=O)(=O)N1CCN(Cc2cc3nc(-c4cccc5[nH]ncc45)nc(N4CCOCC4)c3s2)CC1 [Pictilisib] (partner 1 µM)
label: lo
//
compound: COc1nc(C)cnc1NS(=O)(=O)c1cccnc1-c1ccc(-c2nnco2)cc1 [Zibotentan] + Cc1nc(Nc2ncc(C(=O)Nc3c(C)cccc3Cl)s2)cc(N2CCN(CCO)CC2)n1 [Dasatinib] (partner 0.075 µM)
label: lo
//
compound: O=c1cc(-c2cccc3c2Sc2ccccc2S3)oc(N2CCOCC2)c1 + CCNC(=O)c1noc(-c2cc(C(C)C)c(O)cc2O)c1-c1ccc(CN2CCOCC2)cc1 [Luminespib] (partner 0.01 µM)
label: lo
//
compound: COc1nc(C)cnc1NS(=O)(=O)c1cccnc1-c1ccc(-c2nnco2)cc1 [Zibotentan] + NC(=O)Nc1cc(-c2cccc(F)c2)sc1C(=O)N[C@H]1CCCNC1 [AZD7762] (partner 0.2 µM)
label: hi
//
compound: O=c1cc(-c2cccc3c2Sc2ccccc2S3)oc(N2CCOCC2)c1 + CC(=O)c1c(C)c2cnc(Nc3ccc(N4CCNCC4)cn3)nc2n(C2CCCC2)c1=O [Palbociclib] (partner 0.5 µM)
label: lo
//
compound: COc1nc(C)cnc1NS(=O)(=O)c1cccnc1-c1ccc(-c2nnco2)cc1 [Zibotentan] + O=C(CCCCCCC(=O)Nc1ccccc1)NO [Vorinostat] (partner 1 µM)
label: med
//
compound: O=c1cc(-c2cccc3c2Sc2ccccc2S3)oc(N2CCOCC2)c1 + COc1cc2c(Oc3ccc(NC(=O)C4(C(=O)Nc5ccc(F)cc5)CC4)cc3F)ccnc2cc1OCCCN1CCOCC1 [Foretinib] (partner 0.25 µM)
label: hi
//
compound: O=c1cc(-c2cccc3c2Sc2ccccc2S3)oc(N2CCOCC2)c1 + C[C@@H](Oc1cc(-c2cnn(C3CCNCC3)c2)cnc1N)c1c(Cl)ccc(F)c1Cl [Crizotinib] (partner 1 µM)
label: hi
//
compound: O=c1cc(-c2cccc3c2Sc2ccccc2S3)oc(N2CCOCC2)c1 + Cc1nc(NC(=O)N2CCC[C@H]2C(N)=O)sc1-c1ccnc(C(C)(C)C(F)(F)F)c1 [Alpelisib] (partner 2 µM)
label: hi
//
compound: COc1nc(C)cnc1NS(=O)(=O)c1cccnc1-c1ccc(-c2nnco2)cc1 [Zibotentan] + C[C@]1(O)C[C@@H](c2nc(-c3ccc4ccc(-c5ccccc5)nc4c3)c3c(N)nccn32)C1 [Linsitinib] (partner 1 µM)
label: med
//
compound: COc1nc(C)cnc1NS(=O)(=O)c1cccnc1-c1ccc(-c2nnco2)cc1 [Zibotentan] + O=C(c1cc(Cc2n[nH]c(=O)c3ccccc23)ccc1F)N1CCN(C(=O)C2CC2)CC1 [Olaparib] (partner 8 µM)
label: med

* * *

# System: NCI-H727
# method_summary: relative viability (nuclei count vs DMSO), 5 days (fraction); higher = more cells survive
# condition_summary: first compound 2.53 µM
# T = relative viability below 0.9 (exclusive); F = relative viability at/above 0.9

compound: COc1nc(C)cnc1NS(=O)(=O)c1cccnc1-c1ccc(-c2nnco2)cc1 [Zibotentan] + COc1cccc2cc(-c3nc([C@H]4CC[C@H](C(=O)O)CC4)n4ncnc(N)c34)[nH]c12 [OSI-027] (partner 0.5 µM)
label: T

compound: COc1nc(C)cnc1NS(=O)(=O)c1cccnc1-c1ccc(-c2nnco2)cc1 [Zibotentan] + O=C(c1cc(Cc2n[nH]c(=O)c3ccccc23)ccc1F)N1CCN(C(=O)C2CC2)CC1 [Olaparib] (partner 8 µM)
label: T

compound: COc1nc(C)cnc1NS(=O)(=O)c1cccnc1-c1ccc(-c2nnco2)cc1 [Zibotentan] + O=C(CCCCCCC(=O)Nc1ccccc1)NO [Vorinostat] (partner 1 µM)
label: F

compound: O=c1cc(-c2cccc3c2Sc2ccccc2S3)oc(N2CCOCC2)c1 + CC(=O)c1c(C)c2cnc(Nc3ccc(N4CCNCC4)cn3)nc2n(C2CCCC2)c1=O [Palbociclib] (partner 0.5 µM)
label: T

compound: COc1nc(C)cnc1NS(=O)(=O)c1cccnc1-c1ccc(-c2nnco2)cc1 [Zibotentan] + Cc1cc(Nc2cc(N3CCN(C)CC3)nc(Sc3ccc(NC(=O)C4CC4)cc3)n2)n[nH]1 [Tozasertib] (partner 0.1 µM)
label: T

* * *

# Tested on: NCI-H1915
# method_summary: relative viability (nuclei count vs DMSO), 5 days (fraction); higher = more cells survive
# condition_summary: first compound 0.2 µM
# Fulfilled = relative viability below 0.4 (exclusive); Not fulfilled = relative viability at/above 0.4

compound: COCC1(CO)C(=O)C2CCN1CC2 (centres undefined) [PRIMA-1MET] + N=C(N)NC(=N)NCCc1ccccc1 [Phenformin] (partner 250 µM)
label: Not fulfilled
--
compound: COCC1(CO)C(=O)C2CCN1CC2 (centres undefined) [PRIMA-1MET] + Cc1nc(NC(=O)N2CCC[C@H]2C(N)=O)sc1-c1ccnc(C(C)(C)C(F)(F)F)c1 [Alpelisib] (partner 2 µM)
label: Not fulfilled
--
compound: COCC1(CO)C(=O)C2CCN1CC2 (centres undefined) [PRIMA-1MET] + COc1cc2c(Oc3ccc(NC(=O)C4(C(=O)Nc5ccc(F)cc5)CC4)cc3F)ccnc2cc1OCCCN1CCOCC1 [Foretinib] (partner 0.25 µM)
label: Not fulfilled
--
compound: COCC1(CO)C(=O)C2CCN1CC2 (centres undefined) [PRIMA-1MET] + Nc1ncn([C@H]2C[C@H](O)[C@@H](CO)O2)c(=O)n1 [Decitabine] (partner 2 µM)
label: Fulfilled
--
compound: COCC1(CO)C(=O)C2CCN1CC2 (centres undefined) [PRIMA-1MET] + NC(=O)Nc1cc(-c2cccc(F)c2)sc1C(=O)N[C@H]1CCCNC1 [AZD7762] (partner 0.2 µM)
label: Not fulfilled
--
compound: COCC1(CO)C(=O)C2CCN1CC2 (centres undefined) [PRIMA-1MET] + C[C@]1(O)C[C@@H](c2nc(-c3ccc4ccc(-c5ccccc5)nc4c3)c3c(N)nccn32)C1 [Linsitinib] (partner 1 µM)
label: Not fulfilled
--
compound: COCC1(CO)C(=O)C2CCN1CC2 (centres undefined) [PRIMA-1MET] + Cc1cc(Nc2cc(N3CCN(C)CC3)nc(Sc3ccc(NC(=O)C4CC4)cc3)n2)n[nH]1 [Tozasertib] (partner 0.1 µM)
label: Not fulfilled
--
compound: COCC1(CO)C(=O)C2CCN1CC2 (centres undefined) [PRIMA-1MET] + Cc1nc(Nc2ncc(C(=O)Nc3c(C)cccc3Cl)s2)cc(N2CCN(CCO)CC2)n1 [Dasatinib] (partner 0.075 µM)
label: Fulfilled
--
compound: COCC1(CO)C(=O)C2CCN1CC2 (centres undefined) [PRIMA-1MET] + CC1(C)CCC(c2ccc(Cl)cc2)=C(CN2CCN(c3ccc(C(=O)NS(=O)(=O)c4ccc(N[C@H](CCN5CCOCC5)CSc5ccccc5)c(S(=O)(=O)C(F)(F)F)c4)cc3)CC2)C1 [Navitoclax] (partner 0.5 µM)
label: Not fulfilled

These entries and their values trace back to the supplement of paper PMC10307832.
